Protein target, amino acids: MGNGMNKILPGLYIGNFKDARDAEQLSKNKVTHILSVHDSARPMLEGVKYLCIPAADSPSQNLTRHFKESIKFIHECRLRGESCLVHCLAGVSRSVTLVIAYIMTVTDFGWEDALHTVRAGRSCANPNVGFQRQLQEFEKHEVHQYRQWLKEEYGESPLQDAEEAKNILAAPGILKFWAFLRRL
READOUT TYPE: IC50

Q: Which IC50 is listed for Cc1cc(S(=O)(=O)O)c(S(=O)(=O)O)cc1N1N=C(C(=O)O)CC1=O ?
Ans: > 100 µM

---

- SYSTEM NAME: UniProt Q06124
- Sequence (Q06124 whole entry, the tested form may be a part): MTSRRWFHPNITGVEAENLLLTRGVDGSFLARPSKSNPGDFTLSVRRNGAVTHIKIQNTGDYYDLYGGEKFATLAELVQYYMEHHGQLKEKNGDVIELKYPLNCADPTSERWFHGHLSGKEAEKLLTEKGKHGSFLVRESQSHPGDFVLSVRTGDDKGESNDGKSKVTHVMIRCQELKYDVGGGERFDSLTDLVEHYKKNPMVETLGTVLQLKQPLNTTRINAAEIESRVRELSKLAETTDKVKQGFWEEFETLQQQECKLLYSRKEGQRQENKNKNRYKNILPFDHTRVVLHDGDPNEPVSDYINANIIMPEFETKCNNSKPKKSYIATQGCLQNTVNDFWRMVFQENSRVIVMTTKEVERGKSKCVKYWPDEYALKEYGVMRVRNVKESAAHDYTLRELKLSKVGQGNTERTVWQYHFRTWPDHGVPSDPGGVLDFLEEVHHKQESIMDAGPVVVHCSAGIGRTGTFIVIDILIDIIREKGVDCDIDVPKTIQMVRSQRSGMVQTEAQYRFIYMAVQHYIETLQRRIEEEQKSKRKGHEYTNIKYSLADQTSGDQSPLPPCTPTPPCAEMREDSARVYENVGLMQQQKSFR
- ASSAY REMARKS: Inhibition of SHP2 catalytic domain assessed as inhibition of pNPP to p-nitrophenol conversion at 50 uM after 5 mins by spectrophotometry
READOUT TYPE: inhibition (%)
One number for each entry, in %.

Solved entries (count: 4):
{"MOLECULE": "O=C(O)c1cccc(N/C(=N\\S(=O)(=O)c2ccc(Cl)cc2)c2ccccc2)c1", "inhibition, %": 10.5}
{"MOLECULE": "O=C(O)c1ccc(NC(=O)C2CC=CCC2C(=O)O)cc1O (stereo not given)", "inhibition, %": 4.5}
{"MOLECULE": "Cc1ccccc1NS(=O)(=O)c1cccc(C(=O)Nc2ccccc2C(=O)O)c1", "inhibition, %": 50.5}
{"MOLECULE": "Cc1cc(C(=O)O)ccc1NC(=O)C1CC=CCC1C(=O)O (stereo not given)", "inhibition, %": 13}

Please supply inhibition for each of the following items, keeping them in order.
1. CCOc1cc(/C=N/Nc2ccc(S(=O)(=O)O)cc2)ccc1O
2. Cc1cc(S(=O)(=O)O)c(S(=O)(=O)O)cc1N1N=C(C(=O)O)CC1=O
3. CC(=O)N(c1ccc2oc3c(c2c1)CCCC3)S(=O)(=O)c1ccc(C(=O)O)cc1
4. CC1CCN(S(=O)(=O)c2ccc3[nH]cc(C(=O)O)c(=O)c3c2)CC1
5. O=C(O)c1ccc(/N=N/c2c(O)c(C(=O)O)cc3ccccc23)cc1
6. COc1ccc(C2Nc3ccc(C(=O)O)cc3C3C=CCC32)cc1[N+](=O)[O-] (stereo not given)

Ans:
1. 51
2. 91
3. 74.5
4. 0.5
5. 8.5
6. 1.5
